Target: Inadl_2, Q8NI35
Sequence (Q8NI35 238-335): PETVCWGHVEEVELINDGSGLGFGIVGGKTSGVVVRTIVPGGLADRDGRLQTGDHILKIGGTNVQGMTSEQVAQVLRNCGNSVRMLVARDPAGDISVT
Assay: holdup assay
Set-up: key: below the threshold = too weak to quantify, mostly under pKd 3.1 to 4
Conditions: plain residues with an end cap or a label only (N-terminal biotin on a linker: ttds)
MEASUREMENT TYPE: pKd

INSERT INTO results (binder, value_measured) VALUES
  ('KLVIKTETTV [RASSF6, Q6ZTQ3]', 'below the threshold'),
  ('NPDALPETLV [ARHGAP6, O43182]', 3.93),
  ('DLDEEEDTHL [PODXL, O00592]', 'below the threshold');
